Tested on: SN12K1
Assay: cells
Format: functional
Details: Homo sapiens
Active and inactive are the calls of the source. Rule as the data show it: active = GI50 up to about 1.1 µM and inactive = higher.
A correct response names exactly one class from 1 (yes) for active, 0 (no) for inactive

Cc1cc(NC(=S)Nc2ccccc2)c(NC(=S)Nc2ccccc2)cc1C    0 (no)

Query: Test call for this compound, please: "O=C(CCN1CCOCC1)/C(=C/c1ccccc1)c1ccccc1"
Response: 0 (no)

Query: Test call for this compound, please: "CC(C)NC(=O)OCc1c(COC(=O)NC(C)C)c(-c2ccc(Cl)c(Cl)c2)n2c1CCC2"
Response: 0 (no)

Query: Test call for this compound, please: "Nc1nc2[nH]cnc2c(=S)[nH]1"
Response: 1 (yes)

Query: Test call for this compound, please: CCCCCC(O)C1C(=O)OC(C)C(O)/C=C/C=C/C=C/C=C/C=C(\C)C(O)C(O)C(O)CC(O)CC(O)CC(O)CC(O)CC1O (stereo not given)
Response: 0 (no)
